The entries below come with measured Relative cAMP EC50 values attached.
# target.desc: human glucagon receptor (human) (UniProt P47871)
# Sequence (P47871 26-477): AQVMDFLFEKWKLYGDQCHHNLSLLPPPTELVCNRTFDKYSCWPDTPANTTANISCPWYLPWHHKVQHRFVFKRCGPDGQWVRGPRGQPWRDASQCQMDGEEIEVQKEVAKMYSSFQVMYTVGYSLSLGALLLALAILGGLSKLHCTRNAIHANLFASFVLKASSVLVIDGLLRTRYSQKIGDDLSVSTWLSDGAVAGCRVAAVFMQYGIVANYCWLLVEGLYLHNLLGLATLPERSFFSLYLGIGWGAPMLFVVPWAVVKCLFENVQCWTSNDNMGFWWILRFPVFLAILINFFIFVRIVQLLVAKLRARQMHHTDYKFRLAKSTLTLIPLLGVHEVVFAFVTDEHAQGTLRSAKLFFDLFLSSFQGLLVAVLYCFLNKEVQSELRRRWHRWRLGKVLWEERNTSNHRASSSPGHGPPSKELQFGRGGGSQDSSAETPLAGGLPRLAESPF
# experimental.protocol: cell-based or functional assay
Non-standard residues stand in square brackets, D forms with d. No end group written: not given here. αMePhe(2-F) = C[C@](N)(Cc1ccccc1F)C(=O)O; Aib = CC(C)(N)C(=O)O

{"columns": ["binder", "units.label", "Relative cAMP EC50"],
 "data": [
  ["Y[Aib]QGT[αMePhe(2-F)]TSDYSKLLDKIAQKAFIEYLIEGGPSSGAPPPEGE-NH2 (not fully specified (residue 20)) [Example 357]", "nM", 6.21],
  ["YXQGTFTSDXSQXLDKKAQXAFIEYLIEAGPSSGAPPPSGSE (synthetic construct; SITE 2: note = 2-Aminoisobutyric Acid; SITE 10: note = 3-(4-Pyridyl)-L-alanine; SITE 13: note = alpha-methyl-leucine; SITE 17: note = Lysine is chemically modified through conjugation of the epsilon-amino group of the Lysine side chain with (gamma-Glu)2-CO-(CH2)16-CO2H; SITE 20:) [Example 1025]", "nM", 3.22],
  ["YXQGTFTSDFSKXLDKKAQXAFIEYLLAGGPSSGEPPPSGE (Aib, αMeL, acylated K, C-terminal amide; synthetic construct; SITE 2: note = 2-Aminoisobutyric Acid; SITE 13: note = alpha-methyl-leucine; SITE 17: note = Lysine is chemically modified through conjugation of the epsilon-amino group of the Lysine side chain with (2-[2-(2-Amino-ethoxy)-ethoxy]-acetyl)-(gamma-Glu)-CO-(CH2) 16-CO2H; SITE 20: n) [Example 23]", "nM", 5.13]
]}
